Listed below: Residue after 120 Minutes values for each entry.
experiment: Resistance to proteolytic activity in stomach juices (rat stomach homogenate, HPLC); settings: 37° C., 120 minutes
metric: Residue after 120 Minutes

* CC(C)C[C@H](NC(=O)CSc1ccncc1)C(=O)N1Cc2[nH]c3ccccc3c2C[C@H]1C(=O)O [Compound 3, 4-PTA--(L)--Leu--(S)--Cyt--OH] | > 95%
* CC(C)C[C@H](NC(=O)c1ccc([N+](=O)[O-])cc1)C(=O)N1Cc2[nH]c3ccccc3c2C[C@H]1C(=O)O [Compound 26, 4-NBZ--(L)--Leu--(S)--Cyt--OH] | > 95%
* COc1ccc(C(=O)N[C@@H](CC(C)C)C(=O)N2Cc3[nH]c4ccccc4c3C[C@H]2C(=O)O)cc1OC [Compound 30, 3,4-DMB--(L)--Leu--(S)--Cyt--OH] | > 95%
* O=C(N[C@@H](CC1CCCCC1)C(=O)N1Cc2[nH]c3ccccc3c2C[C@H]1C(=O)O)c1ccco1 [Compound 10, 2-FUR--(L)--Cha--(S)--Cyt--OH] | > 95%

---

target: enzyme purified from the venom of Crotalus Adamanteus (hemorrhagin) (Crotalus adamanteus, UniProt P34179); format: biochemical; details: read-out: IC50
Sequence (P34179 whole entry, looked up): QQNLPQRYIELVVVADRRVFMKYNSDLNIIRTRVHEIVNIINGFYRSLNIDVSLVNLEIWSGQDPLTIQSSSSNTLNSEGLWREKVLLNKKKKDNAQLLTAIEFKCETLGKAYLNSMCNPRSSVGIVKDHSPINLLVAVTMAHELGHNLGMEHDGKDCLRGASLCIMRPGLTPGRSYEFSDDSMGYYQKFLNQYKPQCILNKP
pIC50: −log10 of the molar value.
Listed below: pIC50 values for each entry.
metric: pIC50

- COc1ccc(C(=O)N[C@@H](CC(C)C)C(=O)N2Cc3[nH]c4ccccc4c3C[C@H]2C(=O)O)cc1OC [Compound 30, 3,4-DMB--(L)--Leu--(S)--Cyt--OH]: 6.42
- Cc1cnc(C(=O)N[C@@H](CC(C)C)C(=O)N2Cc3[nH]c4ccccc4c3C[C@H]2C(=O)O)cn1 [Compound 21, 5-MPZ--(L)--Leu--(S)--Cyt--OH]: 7.36
- COc1ccc2[nH]c(C(=O)N[C@@H](Cc3ccccc3)C(=O)N3Cc4[nH]c5ccccc5c4C[C@H]3C(=O)O)cc2c1 [Compound 8, 5-MIC--(L)--Phe--(S)--Cyt--OH]: 7.00
- CCOc1ccccc1C(=O)N[C@@H](CC(C)C)C(=O)N1Cc2[nH]c3ccccc3c2C[C@H]1C(=O)O [Compound 20, 2-EBZ--(L)--Leu--(S)--Cyt--OH]: 6.89
- COc1ccc(C(=O)N[C@@H](CC(C)C)C(=O)N2Cc3[nH]c4ccccc4c3C[C@H]2C(=O)O)c(OC)c1: 7.01

---

target: enzyme purified from the venom of Crotalus Adamanteus (hemorrhagin) (Crotalus adamanteus); format: biochemical; conditions: read-out: IC50
pIC50: −log10 of the molar value.
Listed below: pIC50 values for each entry.
metric: pIC50

• CC(C)C[C@H](NC(=O)c1ccc([N+](=O)[O-])cc1)C(=O)N1Cc2[nH]c3ccccc3c2C[C@H]1C(=O)O [Compound 26, 4-NBZ--(L)--Leu--(S)--Cyt--OH] = 7.02
• CC(C)C[C@H](NC(=O)c1nccnc1N)C(=O)N1Cc2[nH]c3ccccc3c2C[C@H]1C(=O)O [Compound 4, 3-APZC--(L)--Leu--(S)--Cyt--OH] = 7.24
• CC(C)C[C@H](NC(=O)c1ccoc1)C(=O)N1Cc2[nH]c3ccccc3c2C[C@H]1C(=O)O [Compound 13, 3-Furoyl--(L)--Leu--(S)--Cyt--OH] = 6.40

---

biological target: metalloproteinase purified from snake venom, Bothrops Atrox; experiment: Inhibition of metalloproteinase purified from Bothrops Atrox venom; conditions: Table 5; unit M
Listed below: IC50 values for each entry.
metric: IC50 (µM)

- Cc1ccc(C(=O)N[C@@H](CC(C)C)C(=O)N2Cc3[nH]c4ccccc4c3C[C@H]2C(=O)O)cn1 [Compound 22, 6-MNC--(L)--Leu--(S)--Cyt--OH]: 3.2
- CC(C)C[C@H](NC(=O)c1cnccn1)C(=O)N1Cc2[nH]c3ccccc3c2C[C@H]1C(=O)O [Compound 18, 2-PZC--(L)--Leu--(S)--Cyt--OH]: 5.2
- CC(C)C[C@H](NC(=O)c1cc2ccccc2o1)C(=O)N1Cc2[nH]c3ccccc3c2C[C@H]1C(=O)O [Compound 15, 2-BZF--(L)--Leu--(S)--Cyt--OH]: 8.2

---

target: metalloproteinase purified from snake venom, Bothrops Jararaca; experiment: Inhibition of metalloproteinase purified from Bothrops Jararaca venom; details: Table 5; unit M
pIC50: −log10 of the molar value.
Listed below: pIC50 values for each entry.
metric: pIC50

• CC(C)C[C@H](NC(=O)c1cnccn1)C(=O)N1Cc2[nH]c3ccccc3c2C[C@H]1C(=O)O [Compound 18, 2-PZC--(L)--Leu--(S)--Cyt--OH] = 5.08
• CC(C)C[C@H](NC(=O)c1cc2ccccc2o1)C(=O)N1Cc2[nH]c3ccccc3c2C[C@H]1C(=O)O [Compound 15, 2-BZF--(L)--Leu--(S)--Cyt--OH] = 4.85
• Cc1ccc(C(=O)N[C@@H](CC(C)C)C(=O)N2Cc3[nH]c4ccccc4c3C[C@H]2C(=O)O)cn1 [Compound 22, 6-MNC--(L)--Leu--(S)--Cyt--OH] = 4.68

---

biological target: enzyme purified from the venom of Crotalus Adamanteus (hemorrhagin) (Crotalus adamanteus, UniProt P34179); assay type: biochemical
pIC50: −log10 of the molar value.
Listed below: pIC50 values for each entry.
metric: pIC50

- COc1ccc2[nH]c(C(=O)N[C@@H](CC3CCCCC3)C(=O)N3Cc4[nH]c5ccccc5c4C[C@H]3C(=O)O)cc2c1 [Compound 1, 5--MIC--Cha--(S)--Cyt--OH]: 7.54
- COc1ccc2[nH]c(C(=O)N[C@@H](CC(C)C)C(=O)N3Cc4[nH]c5ccccc5c4C[C@H]3C(=O)O)cc2c1 [Compound 17, 5-MIC--(L)--Leu--(S)--Cyt--OH]: 7.64

---

biological target: enzyme purified from the venom of Crotalus Adamanteus (hemorrhagin) (Crotalus adamanteus, UniProt P34179); assay type: biochemical; settings: read-out: IC50
metric: IC50 (nM)

* Cc1ccc(C(=O)N[C@@H](CC(C)C)C(=O)N2Cc3[nH]c4ccccc4c3C[C@H]2C(=O)O)cn1 [Compound 22, 6-MNC--(L)--Leu--(S)--Cyt--OH] | 110
* CC(C)C[C@H](NC(=O)c1cccnc1)C(=O)N1Cc2[nH]c3ccccc3c2C[C@H]1C(=O)O [Compound 28, 3-NIC--(L)--Leu--(S)--Cyt--OH] | 100
* O=C(NCCCC[C@H](NC(=O)c1ccco1)C(=O)N1Cc2[nH]c3ccccc3c2C[C@H]1C(=O)O)OCC1c2ccccc2-c2ccccc21 [Compound 36, 2-FUR--(L)--Lys(Fmoc)--(S)--Cyt--OH] | 100
* COc1cccc2cc(C(=O)N[C@@H](CC(C)C)C(=O)N3Cc4[nH]c5ccccc5c4C[C@H]3C(=O)O)oc12 [Compound 5, 7-MBF--(L)--Leu--(S)--Cyt--OH] | 94
* CC(C)C[C@H](NC(=O)c1ccc(Cl)cc1)C(=O)N1Cc2[nH]c3ccccc3c2C[C@H]1C(=O)O [Compound 27, 4-CBZ--(L)--Leu--(S)--Cyt--OH] | 100
* COc1ccc2c(c1)C(CC(=O)NC(CC(C)C)C(=O)N1Cc3[nH]c4ccccc4c3CC1C(=O)O)CC2=O (mixture of isomers) [Compound 23, 5-MIA--(L)--Leu--(S)--Cyt--OH] | 75
